Biological target: human MC3R (Homo sapiens, UniProt P41968)
Construct: expressed in transfected cells; host or cells: HEK-293 cells stably expressing the GScAMP22F split-luciferase cAMP sensor (parent reporter line from Promega); MC3R clone generated in-house, G418 selection
Sequence (P41968 whole entry): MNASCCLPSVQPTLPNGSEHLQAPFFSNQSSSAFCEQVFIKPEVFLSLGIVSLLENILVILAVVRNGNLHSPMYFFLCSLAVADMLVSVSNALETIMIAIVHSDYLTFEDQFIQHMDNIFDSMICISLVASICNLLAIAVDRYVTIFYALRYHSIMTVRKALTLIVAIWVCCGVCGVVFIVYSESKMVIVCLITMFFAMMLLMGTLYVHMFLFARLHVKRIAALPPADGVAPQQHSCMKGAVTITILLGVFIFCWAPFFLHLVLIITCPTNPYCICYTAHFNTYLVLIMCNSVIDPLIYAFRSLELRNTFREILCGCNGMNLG
Test: split-luciferase cAMP sensor assay, agonist mode (measurement window 1), hMC3R
Format: cell-based
Conditions: MC4R versus MC3R
Positions of bridges follow the written chain, without caps; N, C: chain ends. Non-standard residues stand in square brackets, D forms with d. Residues, ends and D or L forms follow the SMILES beside them. NMeW = CN[C@@H](Cc1c[nH]c2ccccc12)C(=O)O; NMeH = CN[C@@H](Cc1c[nH]cn1)C(=O)O; 3Pal = N[C@@H](Cc1cccnc1)C(=O)O; Cit = NC(=O)NCCC[C@H](N)C(=O)O; Aib = CC(C)(N)C(=O)O
Assign label 1 to entries whose MC4R selectivity vs MC3R meets or exceeds 6; assign label 0 to the rest.

Lookup: Would you say C[C@H]1NC(=O)CSC[C@@H](C(N)=O)NC(=O)[C@H](Cc2c[nH]c3ccccc23)NC(=O)[C@H](CCCNC(=N)N)NC(=O)[C@@H](Cc2ccccc2)NC(=O)[C@H](CCCNC(N)=O)NC1=O [CTX-1643] ({CH2CO}-[dA][Cit][dF]RWC-NH2; thioether N-6) shows MC4R selectivity vs MC3R at minimum 6?
Found: label 1

Others:
Lookup: Does CC(=O)N[C@@H](CCCNC(=N)N)C(=O)N[C@H]1CSSC[C@@H](C(N)=O)NC(=O)[C@H](Cc2ccccc2)NC(=O)[C@H](CCCNC(=N)N)NC(=O)[C@@H](Cc2ccccc2)NC(=O)[C@H](Cc2cccnc2)NC(=O)C(C)(C)NC1=O [CTX-1605] (Ac-RC[Aib][3Pal][dF]RFC-NH2; disulfide 2-8 (inferred)) have a reported MC4R selectivity vs MC3R of at least 6?
Found: label 1

Lookup: Determine whether measured MC4R selectivity vs MC3R meets or exceeds 6 for N=C(N)NCCC[C@@H]1NC(=O)CNC(=O)CSC[C@@H](C(N)=O)NC(=O)[C@H](Cc2c[nH]c3ccccc23)NC(=O)[C@H](CCCNC(=N)N)NC(=O)[C@@H](Cc2ccccc2)NC1=O [CTX-1645] ({CH2CO}-GR[dF]RWC-NH2; thioether N-6)
Found: label 1

Lookup: I'd appreciate it if you could say whether CC[C@H]1NC(=O)[C@@H](NC(=O)[C@H](CCCNC(=N)N)NC(C)=O)CSSC[C@@H](C(N)=O)NC(=O)[C@H](Cc2c[nH]c3ccccc23)NC(=O)[C@H](CCCNC(=N)N)NC(=O)[C@@H](Cc2ccccc2)NC(=O)[C@H](Cc2c[nH]cn2)NC1=O [CTX-1295] has MC4R selectivity vs MC3R at least equal to 6.
Found: label 1

Lookup: Could you please find out whether C[C@H]1NC(=O)CSC[C@@H](C(N)=O)NC(=O)[C@H](Cc2c[nH]c3ccccc23)N(C)C(=O)[C@H](CCCNC(=N)N)NC(=O)[C@@H](Cc2ccccc2)NC(=O)[C@H](Cc2c[nH]cn2)N(C)C1=O [CTX-1203] ({CH2CO}-[dA][NMeH][dF]R[NMeW]C-NH2; thioether N-6) has MC4R selectivity vs MC3R that meets 6 or exceeds it?
Found: label 1

Lookup: Evaluate CC(=O)N[C@@H](CCCNC(=N)N)C(=O)N[C@H]1CSSC[C@@H](C(N)=O)NC(=O)[C@@H](Cc2c[nH]c3ccccc23)NC(=O)[C@H](CCCNC(=N)N)NC(=O)[C@@H](Cc2ccccc2)NC(=O)[C@H](CCCNC(N)=O)NC(=O)[C@@H](C)NC1=O [CTX-1286] (Ac-RC[dA][Cit][dF]R[dW]C-NH2; disulfide 2-8) : MC4R selectivity vs MC3R at minimum 6?
Found: label 0

Origin of values: patent US20240391954A1
